Target: Human TRPV3 (Homo sapiens)
Construct: expressed in transfected cells; host or cells: CHO cells (selected with G-418)
Sequence (Q8NET8 1-790): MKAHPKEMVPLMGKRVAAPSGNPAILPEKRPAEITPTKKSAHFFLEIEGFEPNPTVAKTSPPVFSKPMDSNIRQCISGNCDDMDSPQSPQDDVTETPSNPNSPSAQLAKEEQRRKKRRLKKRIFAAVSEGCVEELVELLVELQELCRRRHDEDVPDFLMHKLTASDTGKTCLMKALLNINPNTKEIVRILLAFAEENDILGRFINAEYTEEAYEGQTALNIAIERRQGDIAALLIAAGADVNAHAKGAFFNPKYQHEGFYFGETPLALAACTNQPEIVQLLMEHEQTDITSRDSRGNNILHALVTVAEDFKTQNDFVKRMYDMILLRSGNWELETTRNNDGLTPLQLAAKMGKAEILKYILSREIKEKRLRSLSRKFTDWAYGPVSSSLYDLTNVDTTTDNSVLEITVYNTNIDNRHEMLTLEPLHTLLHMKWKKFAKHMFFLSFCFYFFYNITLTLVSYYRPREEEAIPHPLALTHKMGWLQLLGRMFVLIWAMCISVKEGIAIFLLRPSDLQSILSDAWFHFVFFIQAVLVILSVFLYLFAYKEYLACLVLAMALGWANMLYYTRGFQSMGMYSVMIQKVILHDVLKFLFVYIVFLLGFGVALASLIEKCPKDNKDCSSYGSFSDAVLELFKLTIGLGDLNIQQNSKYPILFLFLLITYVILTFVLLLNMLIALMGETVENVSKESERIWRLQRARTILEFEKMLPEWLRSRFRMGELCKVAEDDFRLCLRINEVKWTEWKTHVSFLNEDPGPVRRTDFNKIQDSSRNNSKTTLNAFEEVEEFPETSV
Test: Screening for TRPV3 antagonist using the 45Calcium uptake assay (inhibition of 2-APB induced cellular uptake of radioactive calcium)
Format: cell-based
Conditions: CHO, 1.0 μM test compound; Human TRPV3 expressing CHO cells; 2-APB 500 μM; read-out: Percentage inhibition at 1.0 μM
Method: The illustrative examples of the present invention are screened for TRPV3 activity according to a modified procedure described in Tóth, A., Kedei, N., Wang, Y. and Blumberg, P. M. Life Sciences (2003), 73, 487-498. […] The inhibition of TRPV3 receptor activation was followed as inhibition of 2-aminoethxydiphenylborate (2-APB) induced cellular uptake of radioactive calcium. […] Radioactivity in the lysate was measured in Packardt Top count after addition of liquid scintillant. […]
Kindly supply the reported inhibition at 1 µM values for the records listed here.

Field inhibition at 1 µM (entry COc1cccc(/C=C/c2nc3ccccn3c(=O)c2-c2cc(F)cc(F)c2)c1OC1CCCC1 [Example 21] ) reads 27.2%

Field inhibition at 1 µM (entry COc1cccc(/C=C/c2nc3ccccn3c(=O)c2-c2ccc3c(c2)OCCO3)c1OC1CCCC1 [Example 38] ) reads 55.5%

Field inhibition at 1 µM (entry CCCCCOc1c(/C=C/c2nc3ccccn3c(=O)c2-c2ccc(C#N)cc2)cccc1OC [Example 12] ) reads 87.9%

Field inhibition at 1 µM (entry COc1cccc(/C=C/c2nc3ccccn3c(=O)c2-c2ccccc2)c1OCC1CC1 [Example 16] ) reads 33.8%

Field inhibition at 1 µM (entry COc1cccc(/C=C/c2nc3ccccn3c(=O)c2-c2cccc(O)c2)c1OC1CCCC1 [Example 25] ) reads 20.7%

Field inhibition at 1 µM (entry COc1cccc(/C=C/c2nc3ccccn3c(=O)c2-c2ccc3ncccc3c2)c1OC1CCCC1 [Example 39] ) reads 84.6%

Field inhibition at 1 µM (entry COc1cccc(-c2c(/C=C/c3cccc(OC)c3OC3CCCC3)nc3ccccn3c2=O)c1 [Example 26] ) reads 48%

Field inhibition at 1 µM (entry COc1cccc(/C=C/c2nc3ccccn3c(=O)c2-c2ccc(C(F)(F)F)cc2)c1OCC1CC1 [Example 17] ) reads 83.3%
